Values were extracted from patent US20230406838A1.

Molecular target: EGFR L858R Ba/F3 cells (Homo sapiens, UniProt P00533, L858R, cells depend on it)
Sequence (P00533 whole entry L858R): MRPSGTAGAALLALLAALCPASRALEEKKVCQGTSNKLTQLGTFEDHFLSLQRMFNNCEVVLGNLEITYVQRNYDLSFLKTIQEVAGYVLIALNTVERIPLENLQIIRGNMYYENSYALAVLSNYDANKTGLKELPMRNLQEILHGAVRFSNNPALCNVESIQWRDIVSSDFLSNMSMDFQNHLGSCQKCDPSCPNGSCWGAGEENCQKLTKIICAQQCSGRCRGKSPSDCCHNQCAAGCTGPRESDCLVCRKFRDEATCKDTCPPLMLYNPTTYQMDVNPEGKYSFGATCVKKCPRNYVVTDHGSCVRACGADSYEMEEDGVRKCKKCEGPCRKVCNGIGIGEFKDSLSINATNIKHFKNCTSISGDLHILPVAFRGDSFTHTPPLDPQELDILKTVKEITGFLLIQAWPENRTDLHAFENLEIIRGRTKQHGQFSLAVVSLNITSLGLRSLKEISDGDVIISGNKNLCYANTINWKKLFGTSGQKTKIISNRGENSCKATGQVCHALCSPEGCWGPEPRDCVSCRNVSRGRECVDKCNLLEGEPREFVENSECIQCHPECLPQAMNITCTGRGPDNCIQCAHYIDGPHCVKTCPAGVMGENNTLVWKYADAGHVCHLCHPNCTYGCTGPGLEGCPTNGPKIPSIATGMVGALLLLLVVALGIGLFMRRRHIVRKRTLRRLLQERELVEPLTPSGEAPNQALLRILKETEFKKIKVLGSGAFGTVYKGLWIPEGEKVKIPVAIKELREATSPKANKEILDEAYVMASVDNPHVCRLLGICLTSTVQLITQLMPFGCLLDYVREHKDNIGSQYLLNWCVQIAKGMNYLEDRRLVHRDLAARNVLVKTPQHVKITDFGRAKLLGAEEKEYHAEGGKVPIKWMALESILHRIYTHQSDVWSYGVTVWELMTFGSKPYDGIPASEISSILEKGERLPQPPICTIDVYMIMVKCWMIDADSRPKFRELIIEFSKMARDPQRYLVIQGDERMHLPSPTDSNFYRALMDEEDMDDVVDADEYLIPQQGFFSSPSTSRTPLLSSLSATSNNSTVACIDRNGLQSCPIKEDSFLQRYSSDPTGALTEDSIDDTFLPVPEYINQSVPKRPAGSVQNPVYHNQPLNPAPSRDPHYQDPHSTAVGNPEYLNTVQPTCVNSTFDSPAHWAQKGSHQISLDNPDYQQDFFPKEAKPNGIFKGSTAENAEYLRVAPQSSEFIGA
Experiment: Ba/F3 cell proliferation (Cell Titer Glo), L858R
Conditions: Ba/F3, 72 hours, value in parentheses, meaning not explained, read-out: L858R, inhibition of growth (value in parentheses)
pEC50: −log10 of the molar value.
Endpoint Name: pEC50

Below: 2 compounds and their reported pEC50.
Structure Smiles: CSc1nc(-c2cccc(NC(=O)c3c(F)ccc(O)c3CN3C(=O)c4ccccc4C3=O)c2)c(-c2ccnc(Nc3ccccc3)c2)[nH]1
pEC50: < 5.00

Structure Smiles: CSc1nc(-c2cccc(NC(=O)c3ccccc3CN3Cc4ccccc4C3=O)c2)c(-c2ccnc(NC(C)=O)c2)[nH]1
pEC50: < 5.00

Looking for the measured pEC50 of CSc1nc(-c2cccc(NC(=O)c3ccccc3CN3C(=O)c4ccccc4C3=O)c2)c(-c2ccnc(Nc3ccccc3)c2)[nH]1 , can you help?
< 5.06

Repeat with C=CC(=O)Nc1ccc(OC)c(Nc2cc(-c3[nH]c(SC)nc3-c3cccc(NC(=O)c4ccccc4CN4Cc5ccccc5C4=O)c3)ccn2)c1
6.30

Repeat with CSc1nc(-c2cccc(NC(=O)c3ccccc3CN3Cc4ccccc4C3=O)c2)c(-c2ccnc(Nc3ccccc3)c2)[nH]1
< 5.28

###

Target: WT EGFR Ba/F3 cells (Homo sapiens, UniProt P00533, cells depend on it, form not given)
Sequence (P00533 whole entry, change not shown): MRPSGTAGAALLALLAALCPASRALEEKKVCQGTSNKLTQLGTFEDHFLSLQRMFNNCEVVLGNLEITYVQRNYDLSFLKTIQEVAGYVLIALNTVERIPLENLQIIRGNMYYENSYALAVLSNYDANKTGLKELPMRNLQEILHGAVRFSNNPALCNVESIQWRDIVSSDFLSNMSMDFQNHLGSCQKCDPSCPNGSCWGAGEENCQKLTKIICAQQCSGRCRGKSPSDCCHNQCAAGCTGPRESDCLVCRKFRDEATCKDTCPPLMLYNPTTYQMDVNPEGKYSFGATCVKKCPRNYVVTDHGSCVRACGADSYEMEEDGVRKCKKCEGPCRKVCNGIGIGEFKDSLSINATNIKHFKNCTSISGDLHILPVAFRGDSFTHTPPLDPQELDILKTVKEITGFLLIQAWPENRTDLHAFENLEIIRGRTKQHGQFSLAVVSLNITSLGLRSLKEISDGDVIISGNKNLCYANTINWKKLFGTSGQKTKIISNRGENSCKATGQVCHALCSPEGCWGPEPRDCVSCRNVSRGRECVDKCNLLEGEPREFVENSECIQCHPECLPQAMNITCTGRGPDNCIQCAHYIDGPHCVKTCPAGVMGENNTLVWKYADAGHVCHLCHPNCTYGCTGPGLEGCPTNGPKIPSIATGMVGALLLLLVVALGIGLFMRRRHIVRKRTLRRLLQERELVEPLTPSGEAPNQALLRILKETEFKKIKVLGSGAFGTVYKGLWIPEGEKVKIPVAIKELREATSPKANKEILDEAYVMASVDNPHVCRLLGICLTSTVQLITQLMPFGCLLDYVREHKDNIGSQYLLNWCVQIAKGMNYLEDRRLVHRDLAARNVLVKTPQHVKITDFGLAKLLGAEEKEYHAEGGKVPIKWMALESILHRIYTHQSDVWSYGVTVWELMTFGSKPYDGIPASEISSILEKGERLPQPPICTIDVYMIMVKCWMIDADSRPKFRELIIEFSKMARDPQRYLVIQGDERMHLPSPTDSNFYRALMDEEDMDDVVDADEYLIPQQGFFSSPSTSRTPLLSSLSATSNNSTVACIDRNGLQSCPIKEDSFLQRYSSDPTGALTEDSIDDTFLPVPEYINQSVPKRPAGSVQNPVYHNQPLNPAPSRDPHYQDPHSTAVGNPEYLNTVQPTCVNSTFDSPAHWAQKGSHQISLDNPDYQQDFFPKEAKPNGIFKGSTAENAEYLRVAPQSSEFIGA
Experiment: Ba/F3 cell proliferation (Cell Titer Glo), WT
Conditions: Ba/F3, 72 hours, value in parentheses, meaning not explained, read-out: WT, inhibition of growth (value in parentheses)
pEC50: −log10 of the molar value.
Endpoint Name: pEC50

Below: 3 molecules and their reported pEC50.
Molecule: CSc1nc(-c2cccc(NC(=O)c3ccccc3CN3C(=O)c4ccccc4C3=O)c2)c(-c2ccnc(Nc3ccccc3)c2)[nH]1 [Compound 067]
Endpoint Name: pEC50
Value: < 5.48
//
Molecule: C=CC(=O)Nc1ccc(OC)c(Nc2cc(-c3[nH]c(SC)nc3-c3cccc(NC(=O)c4ccccc4CN4Cc5ccccc5C4=O)c3)ccn2)c1 [Compound 064]
Endpoint Name: pEC50
Value: < 5.40
//
Molecule: CSc1nc(-c2cccc(NC(=O)c3c(F)ccc(O)c3CN3C(=O)c4ccccc4C3=O)c2)c(-c2ccnc(Nc3ccccc3)c2)[nH]1 [Compound 068]
Endpoint Name: pEC50
Value: < 5.25

Give pEC50 (WT EGFR Ba/F3 cells (Homo sapiens, UniProt P00533, cells depend on it, form not given)) of the following molecule: CSc1nc(-c2cccc(NC(=O)c3ccccc3CN3Cc4ccccc4C3=O)c2)c(-c2ccnc(NC(C)=O)c2)[nH]1 [Compound 047]
< 5.37

Repeat with CSc1nc(-c2cccc(NC(=O)c3ccccc3CN3Cc4ccccc4C3=O)c2)c(-c2ccnc(Nc3ccccc3)c2)[nH]1 [Compound 069]
< 5.68

###

Molecular target: EGFR L858R/T790M (Homo sapiens, UniProt P00533, L858R/T790M)
Sequence (P00533 25-1210 T790M/L858R): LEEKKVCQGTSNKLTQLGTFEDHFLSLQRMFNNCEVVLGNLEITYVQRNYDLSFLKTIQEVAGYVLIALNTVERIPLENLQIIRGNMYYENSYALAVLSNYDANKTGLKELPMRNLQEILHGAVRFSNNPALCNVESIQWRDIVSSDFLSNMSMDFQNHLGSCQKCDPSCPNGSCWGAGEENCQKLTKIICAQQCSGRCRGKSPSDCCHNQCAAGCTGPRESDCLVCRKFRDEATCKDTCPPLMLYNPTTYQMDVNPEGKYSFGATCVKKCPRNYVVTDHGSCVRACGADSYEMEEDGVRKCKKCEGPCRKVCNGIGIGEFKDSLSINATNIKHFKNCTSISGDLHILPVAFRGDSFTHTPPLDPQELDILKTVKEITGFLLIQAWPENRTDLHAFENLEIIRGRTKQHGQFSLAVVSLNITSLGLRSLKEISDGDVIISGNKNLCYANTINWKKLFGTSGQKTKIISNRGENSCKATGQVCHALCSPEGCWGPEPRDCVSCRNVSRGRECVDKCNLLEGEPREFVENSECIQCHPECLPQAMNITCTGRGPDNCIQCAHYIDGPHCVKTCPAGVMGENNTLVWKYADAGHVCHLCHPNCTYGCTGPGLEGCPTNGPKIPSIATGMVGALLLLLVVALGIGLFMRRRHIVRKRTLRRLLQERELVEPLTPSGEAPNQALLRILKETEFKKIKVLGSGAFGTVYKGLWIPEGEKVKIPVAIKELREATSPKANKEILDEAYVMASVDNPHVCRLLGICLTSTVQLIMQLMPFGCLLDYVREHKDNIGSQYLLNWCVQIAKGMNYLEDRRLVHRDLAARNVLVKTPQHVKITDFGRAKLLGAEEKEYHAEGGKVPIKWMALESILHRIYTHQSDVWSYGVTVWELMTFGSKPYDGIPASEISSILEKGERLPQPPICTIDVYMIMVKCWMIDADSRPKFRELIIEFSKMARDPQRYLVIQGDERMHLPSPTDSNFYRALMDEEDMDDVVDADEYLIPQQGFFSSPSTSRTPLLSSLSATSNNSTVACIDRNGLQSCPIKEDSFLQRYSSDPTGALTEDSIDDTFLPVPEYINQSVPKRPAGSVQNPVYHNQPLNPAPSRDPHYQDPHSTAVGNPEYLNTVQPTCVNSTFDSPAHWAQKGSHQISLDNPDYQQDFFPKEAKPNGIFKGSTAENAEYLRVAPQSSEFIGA
Test: HTRF-based EGFR biochemical assay, L858R/T790M
Details: 100 μM ATP, enzyme 0.02 nM
Measured IC50 by item

Below: 2 compounds and their reported IC50.
Compound: CSc1nc(-c2cccc(NC(=O)Nc3cccc(C(F)(F)F)c3)c2)c(-c2ccnc(NC(C)=O)c2)[nH]1
IC50: 0.857 µM
//
Compound: CSc1nc(-c2ccccc2NC(=O)c2ccco2)c(-c2ccnc(NC(C)=O)c2)[nH]1
IC50: > 100 µM

Looking for the measured IC50 of CSc1nc(-c2cccc3c2CCC3NC(=O)c2c(F)cccc2F)c(-c2ccnc(NC(C)=O)c2)[nH]1 (stereo not shown) , can you help?
> 100 µM

Repeat with CSc1nc(-c2cccc(NC(=O)c3ccccc3CN3Cc4ccccc4C3=O)c2)c(-c2ccnc(NC(C)=O)c2)[nH]1
0.759 µM

Repeat with CSc1nc(-c2ccccc2NC(=O)c2cc(C)cs2)c(-c2ccnc(NC(C)=O)c2)[nH]1
> 100 µM

Repeat with CSc1nc(-c2ccccc2NC(=O)c2cccc3[nH]ccc23)c(-c2ccnc(NC(C)=O)c2)[nH]1
> 100 µM

Repeat with CSc1nc(-c2cc(NC(=O)Cc3ccccc3)cs2)c(-c2ccnc(NC(C)=O)c2)[nH]1
> 100 µM
